Origin of measurements: paper PMC5896380

biological target: cathepsin S (Homo sapiens, UniProt P25774); construct: made in house; test: Kinetic parameters of ACC substrates with cathepsin S; format: biochemical; conditions: Fig. 5B; pH 5.5, 37 °C; cathepsin S 5–20 nM; triplicate, SD below 15%
Sequence (P25774 115-331): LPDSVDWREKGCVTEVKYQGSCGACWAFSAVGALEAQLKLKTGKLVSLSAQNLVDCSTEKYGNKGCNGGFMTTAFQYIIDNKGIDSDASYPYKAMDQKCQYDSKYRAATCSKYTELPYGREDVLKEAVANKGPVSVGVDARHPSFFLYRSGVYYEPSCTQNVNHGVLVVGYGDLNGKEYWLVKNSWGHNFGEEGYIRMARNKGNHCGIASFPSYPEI
Non-standard residues stand in square brackets, D forms with d. *: point of attachment. Phe(F5) = N[C@@H](Cc1c(F)c(F)c(F)c(F)c1F)C(=O)O; ACC = NC(=O)Cc1cc(=O)oc2cc(N*)ccc12; Mob = COc1ccc(C*)cc1; Meb = Cc1ccc(C*)cc1; Bn = c1ccc(C*)cc1
Below, each of the substances is paired with its reported kcat/KM Cath-S value.
observation-type: kcat/KM Cath-S

[[record]]
substance = "Ac-H[dV][Phe(F5)]C(Bn)-{ACC} (SMILES CC(=O)N[C@@H](Cc1c[nH]cn1)C(=O)N[C@@H](C(=O)N[C@@H](Cc1c(F)c(F)c(F)c(F)c1F)C(=O)N[C@@H](CSCc1ccccc1)C(=O)Nc1ccc2c(CC(N)=O)cc(=O)oc2c1)C(C)C)"
reported_value = "< 10 M⁻¹ s⁻¹"

[[record]]
substance = "Ac-H[dV][Phe(F5)]L-{ACC} (SMILES CC(=O)N[C@@H](Cc1c[nH]cn1)C(=O)N[C@@H](C(=O)N[C@@H](Cc1c(F)c(F)c(F)c(F)c1F)C(=O)N[C@@H](CC(C)C)C(=O)Nc1ccc2c(CC(N)=O)cc(=O)oc2c1)C(C)C)"
reported_value = "912 M⁻¹ s⁻¹"

[[record]]
substance = "Ac-H[dV][Phe(F5)]C(Mob)-{ACC} (SMILES COc1ccc(CSC[C@H](NC(=O)[C@H](Cc2c(F)c(F)c(F)c(F)c2F)NC(=O)[C@H](NC(=O)[C@H](Cc2c[nH]cn2)NC(C)=O)C(C)C)C(=O)Nc2ccc3c(CC(N)=O)cc(=O)oc3c2)cc1)"
reported_value = "< 10 M⁻¹ s⁻¹"

[[record]]
substance = "Ac-H[dV][Phe(F5)]C(Meb)-{ACC} (SMILES CC(=O)N[C@@H](Cc1c[nH]cn1)C(=O)N[C@@H](C(=O)N[C@@H](Cc1c(F)c(F)c(F)c(F)c1F)C(=O)N[C@@H](CSCc1ccc(C)cc1)C(=O)Nc1ccc2c(CC(N)=O)cc(=O)oc2c1)C(C)C)"
reported_value = "< 10 M⁻¹ s⁻¹"


----------
molecular target: cathepsin K (Homo sapiens); construct: made in house; experiment: Kinetic parameters of ACC substrates with cathepsin K; assay type: biochemical; details: Fig. 5B; pH 5.5, 37 °C; cathepsin K 5–20 nM; triplicate, SD below 15%
Sequence (P43235 115-329): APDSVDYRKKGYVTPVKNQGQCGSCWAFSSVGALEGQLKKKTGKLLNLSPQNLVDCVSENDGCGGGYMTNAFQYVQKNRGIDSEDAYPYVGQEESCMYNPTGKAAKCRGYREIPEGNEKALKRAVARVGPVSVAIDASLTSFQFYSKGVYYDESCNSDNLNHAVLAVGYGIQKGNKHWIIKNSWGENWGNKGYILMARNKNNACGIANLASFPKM
Non-standard residues stand in square brackets, D forms with d. *: point of attachment. Phe(F5) = N[C@@H](Cc1c(F)c(F)c(F)c(F)c1F)C(=O)O; ACC = NC(=O)Cc1cc(=O)oc2cc(N*)ccc12; Mob = COc1ccc(C*)cc1; Meb = Cc1ccc(C*)cc1; Bn = c1ccc(C*)cc1
Below, each of the substances is paired with its reported kcat/KM Cath-K value.
observation-type: kcat/KM Cath-K (M⁻¹ s⁻¹)

[[record]]
substance = "Ac-H[dQ][Phe(F5)]R-{ACC} (SMILES CC(=O)N[C@@H](Cc1c[nH]cn1)C(=O)N[C@H](CCC(N)=O)C(=O)N[C@@H](Cc1c(F)c(F)c(F)c(F)c1F)C(=O)N[C@@H](CCCNC(=N)N)C(=O)Nc1ccc2c(CC(N)=O)cc(=O)oc2c1)"
observation_type = "kcat/KM Cath-K"
operator = "<"
reported_value = 10

[[record]]
substance = "Ac-H[dV][Phe(F5)]L-{ACC} (SMILES CC(=O)N[C@@H](Cc1c[nH]cn1)C(=O)N[C@@H](C(=O)N[C@@H](Cc1c(F)c(F)c(F)c(F)c1F)C(=O)N[C@@H](CC(C)C)C(=O)Nc1ccc2c(CC(N)=O)cc(=O)oc2c1)C(C)C)"
observation_type = "kcat/KM Cath-K"
operator = "="
reported_value = 646

[[record]]
substance = "Ac-H[dV]T(Bn)R-{ACC} (SMILES CC(=O)N[C@@H](Cc1c[nH]cn1)C(=O)N[C@@H](C(=O)N[C@H](C(=O)N[C@@H](CCCNC(=N)N)C(=O)Nc1ccc2c(CC(N)=O)cc(=O)oc2c1)[C@@H](C)OCc1ccccc1)C(C)C)"
observation_type = "kcat/KM Cath-K"
operator = "="
reported_value = 130

[[record]]
substance = "Ac-H[dV][Phe(F5)]C(Mob)-{ACC} (SMILES COc1ccc(CSC[C@H](NC(=O)[C@H](Cc2c(F)c(F)c(F)c(F)c2F)NC(=O)[C@H](NC(=O)[C@H](Cc2c[nH]cn2)NC(C)=O)C(C)C)C(=O)Nc2ccc3c(CC(N)=O)cc(=O)oc3c2)cc1)"
observation_type = "kcat/KM Cath-K"
operator = "<"
reported_value = 10

[[record]]
substance = "Ac-H[dV][Phe(F5)]C(Meb)-{ACC} (SMILES CC(=O)N[C@@H](Cc1c[nH]cn1)C(=O)N[C@@H](C(=O)N[C@@H](Cc1c(F)c(F)c(F)c(F)c1F)C(=O)N[C@@H](CSCc1ccc(C)cc1)C(=O)Nc1ccc2c(CC(N)=O)cc(=O)oc2c1)C(C)C)"
observation_type = "kcat/KM Cath-K"
operator = "<"
reported_value = 10

[[record]]
substance = "Ac-H[dV][Phe(F5)]C(Bn)-{ACC} (SMILES CC(=O)N[C@@H](Cc1c[nH]cn1)C(=O)N[C@@H](C(=O)N[C@@H](Cc1c(F)c(F)c(F)c(F)c1F)C(=O)N[C@@H](CSCc1ccccc1)C(=O)Nc1ccc2c(CC(N)=O)cc(=O)oc2c1)C(C)C)"
observation_type = "kcat/KM Cath-K"
operator = "="
reported_value = 190

[[record]]
substance = "Ac-R[dV][Phe(F5)]R-{ACC} (SMILES CC(=O)N[C@@H](CCCNC(=N)N)C(=O)N[C@@H](C(=O)N[C@@H](Cc1c(F)c(F)c(F)c(F)c1F)C(=O)N[C@@H](CCCNC(=N)N)C(=O)Nc1ccc2c(CC(N)=O)cc(=O)oc2c1)C(C)C)"
observation_type = "kcat/KM Cath-K"
operator = "<"
reported_value = 10

[[record]]
substance = "Ac-H[dT][Phe(F5)]R-{ACC} (SMILES CC(=O)N[C@@H](Cc1c[nH]cn1)C(=O)N[C@@H](C(=O)N[C@@H](Cc1c(F)c(F)c(F)c(F)c1F)C(=O)N[C@@H](CCCNC(=N)N)C(=O)Nc1ccc2c(CC(N)=O)cc(=O)oc2c1)[C@H](C)O)"
observation_type = "kcat/KM Cath-K"
operator = "<"
reported_value = 10

[[record]]
substance = "Ac-H[dK][Phe(F5)]R-{ACC} (SMILES CC(=O)N[C@@H](Cc1c[nH]cn1)C(=O)N[C@H](CCCCN)C(=O)N[C@@H](Cc1c(F)c(F)c(F)c(F)c1F)C(=O)N[C@@H](CCCNC(=N)N)C(=O)Nc1ccc2c(CC(N)=O)cc(=O)oc2c1)"
observation_type = "kcat/KM Cath-K"
operator = "="
reported_value = 29


----------
target: cathepsin B (Homo sapiens, UniProt P07858); construct: made in house; assay: Kinetic parameters of ACC substrates with cathepsin B; format: biochemical; details: Fig. 5B; pH 5.5, 37 °C; cathepsin B 4–15 nM; triplicate, SD below 15%
Non-standard residues stand in square brackets, D forms with d. *: point of attachment. Phe(F5) = N[C@@H](Cc1c(F)c(F)c(F)c(F)c1F)C(=O)O; Phe(3,4-F2) = N[C@@H](Cc1ccc(F)c(F)c1)C(=O)O; Phe(3-F) = N[C@@H](Cc1cccc(F)c1)C(=O)O; ACC = NC(=O)Cc1cc(=O)oc2cc(N*)ccc12; ClZ = O=C(OCc1ccccc1Cl)*
Below, each of the substances is paired with its reported kcat/KM Cath-B value.
observation-type: kcat/KM Cath-B

[[record]]
substance = "Ac-H[dQ][Phe(F5)]R-{ACC} (SMILES CC(=O)N[C@@H](Cc1c[nH]cn1)C(=O)N[C@H](CCC(N)=O)C(=O)N[C@@H](Cc1c(F)c(F)c(F)c(F)c1F)C(=O)N[C@@H](CCCNC(=N)N)C(=O)Nc1ccc2c(CC(N)=O)cc(=O)oc2c1)"
reported_value = "130 M⁻¹ s⁻¹"

[[record]]
substance = "Ac-H[dV][Phe(3,4-F2)]R-{ACC} (SMILES CC(=O)N[C@@H](Cc1c[nH]cn1)C(=O)N[C@@H](C(=O)N[C@@H](Cc1ccc(F)c(F)c1)C(=O)N[C@@H](CCCNC(=N)N)C(=O)Nc1ccc2c(CC(N)=O)cc(=O)oc2c1)C(C)C)"
reported_value = "2,520 M^-1s^-1"

[[record]]
substance = "Ac-H[dV][Phe(F5)]K(ClZ)-{ACC} (SMILES CC(=O)N[C@@H](Cc1c[nH]cn1)C(=O)N[C@@H](C(=O)N[C@@H](Cc1c(F)c(F)c(F)c(F)c1F)C(=O)N[C@@H](CCCCNC(=O)OCc1ccccc1Cl)C(=O)Nc1ccc2c(CC(N)=O)cc(=O)oc2c1)C(C)C)"
reported_value = "1,320 M^-1s^-1"

[[record]]
substance = "Ac-H[dV][Phe(3-F)]R-{ACC} (SMILES CC(=O)N[C@@H](Cc1c[nH]cn1)C(=O)N[C@@H](C(=O)N[C@@H](Cc1cccc(F)c1)C(=O)N[C@@H](CCCNC(=N)N)C(=O)Nc1ccc2c(CC(N)=O)cc(=O)oc2c1)C(C)C)"
reported_value = "6,280 M^-1s^-1"

